Where these numbers come from: patent US20080181886A1

Give F' APRIL for every item shown.
Target: T1, Murine APRIL (mouse, UniProt Q9D777 105-241, limits assumed)
T1 sequence (looked up): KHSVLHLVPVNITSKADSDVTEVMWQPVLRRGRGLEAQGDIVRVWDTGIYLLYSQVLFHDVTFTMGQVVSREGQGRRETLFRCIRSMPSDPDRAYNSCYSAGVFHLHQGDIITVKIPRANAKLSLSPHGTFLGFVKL
Test: NNS library, phage display;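 further: ligand versus display occurrence-to-degeneracy ratio and higher means enriched by binding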
When you answer, write just the number.

Item SLSCRKEQGKNYDHLLRDCISCASICGQHPKQCAYFCENKLR (receptor, phage library variant, format as m9) [TACI_d2 F78N] has what recorded F' APRIL?
0

Moving on to SLSCRKEQGKWYDHLLRDCISCASICGQHPKQCAYFCENKLR (receptor, phage library variant, format as m9) [TACI_d2 F78W]
0

Moving on to SLSCRKEQGKKYDHLLRDCISCASICGQHPKQCAYFCENKLR (receptor, phage library variant, format as m9) [TACI_d2 F78K]
0
